- Test system: DMS-114
- Procedure Details: NCI tumour cell line growth inhibition, 48 h
Calls of active or inactive are those of the source. Cut-off read from the data, not from the text of the source: active = GI50 up to about 1.1 µM and inactive = higher.
Below is a list of entries, each paired with its recorded GI50 value.

Please review the following examples before continuing.
C/N=C(\S)N/N=C/C(C)=N/N/C(S)=N/C; 0.0414 µM (active)
CN1COCN/C1=N/C#N; > 100 µM (inactive)
CC(CC(=O)Nc1ccc(NC(=O)CC(C)/N=N\C(N)=S)cc1)/N=N\C(N)=S (configuration not stated); 53.7 µM (inactive)
CC1=CC2C(C=C1)S(=O)(=O)N1CC21c1ccccc1 (configuration not stated); 21.4 µM (inactive)
CCC1(CN(C)C)CC/C(=C\c2ccc(OC)cc2)C1=O (configuration not stated); 54.1 µM (inactive)

**Q:** Fill in: GI50 of Oc1ccc(Br)cc1/C=N/c1ccc(/N=C/c2cc(Br)ccc2O)cc1 is ___
**A:** > 100 µM (inactive)

**Q:** Try this compound too: C/C=C1\C[C@@H]2C(OC)Nc3cc(O)c(OC)cc3C(=O)N2C1 (some centres not stated)
**A:** 0.00118 µM (active)

###

Below is a list of entries, each paired with its recorded GI50 value.
- Test system: 786-0
- Procedure Details: NCI tumour cell line growth inhibition, 48 h
Active and inactive are the calls of the source. No stated cut-off is given here; in the data, active = GI50 up to about 1.1 µM and inactive = higher.

Please review the following examples before continuing.
O=C(Nc1nccs1)NS(=O)(=O)n1cnc2ccccc21; > 100 µM (inactive)
CC(=O)OC(Cc1ccc2ccccc2n1)(C(F)(F)F)C(F)(F)F; 1.52 µM (inactive)
CNC(=O)N(C1=NCC(C)S1)c1ccc(C)c(C)c1 (stereo unspecified); 4.74 µM (inactive)
C=CCNC1=C2C[C@@H](C)C[C@@H](OC)[C@H](OC(=O)CCN(C)C)[C@H](C)/C=C(\C)[C@@H](OC(N)=O)[C@H](OC)/C=C\C=C(/C)C(=O)NC(=CC1=O)C2=O; 1.43 µM (inactive)

**Q:** Kindly state the measured GI50 obtained for O=C1Nc2cccc3ncn(c23)C2=C1CCCC2 with 786-0.
**A:** > 100 µM (inactive)

**Q:** Try this compound too: O=C(Nc1sccc1S(=O)(=O)c1ccc(Cl)cc1)C(F)(F)F
**A:** 17 µM (inactive)

**Q:** Try this compound too: COC(=O)C1C(=O)CC(C)(O)C(C(=O)OC)C1c1ccc(N(C)C)cc1 (stereo unspecified)
**A:** 12 µM (inactive)

**Q:** Try this compound too: O=C(O)Cc1ccc2c(c1O)C(=O)c1c(ccc(CC(=O)O)c1O)C2=O
**A:** > 100 µM (inactive)

###

- Test system: RXF 393
- Procedure Details: NCI tumour cell line growth inhibition, 48 h
Active and inactive are the calls of the source. Cut-off read from the data, not from the text of the source: active = GI50 up to about 1.1 µM and inactive = higher.
Hello, when you answer, please use one of the following outcomes: y for active, n for inactive

Worked examples, 5 compounds total:
O=Cc1[nH]c2ccccc2c1Br; n
O=c1c2ccccc2[nH]c(=S)n1-c1ccc(/N=N/c2cccc3c(O)cccc23)cc1; n
COC(=O)c1ccccc1C1CN=NC12Cc1c(ccc3c1CCC3)C2=O (stereo unspecified); n
S=c1ssc2c3ssc(=S)c3n(Cc3ccccc3)c12; y
COc1ccccc1OCC(COC(=O)Nc1ccccc1)OC(=O)Nc1ccccc1 (stereo unspecified); n

**Q:** // outcome(item) with item = Clc1ccc(-c2c(C3=NCCCN3)nnn2-c2ccccc2)cc1
**A:** n

###

- Test system: TK-10
- Procedure Details: NCI tumour cell line growth inhibition, 48 h
Calls of active or inactive are those of the source. Cut-off read from the data, not from the text of the source: active = GI50 up to about 1.1 µM and inactive = higher.
Reported Property: GI50

COC(=O)C1(C)CCCC2(C)C3CCC4CC3(C=C4CO)CCC12 (stereo not drawn); 91.6 µM (inactive)
Cn1c(=O)c2c(nc(NCCCCl)n2CC(=O)NCCCCl)n(C)c1=O; > 100 µM (inactive)
COC(=O)C1(Cc2ccccc2)Cc2ccccc2C1=O (stereo not drawn); 57 µM (inactive)
CCOC(=N)CC(=O)Nc1cccc(C)c1C; > 100 µM (inactive)
Clc1cccc(N2CCN(CCCN3CCc4c([nH]c5ccccc45)C3c3cccnc3)CC2)c1 (stereo not drawn); > 10 µM (inactive)
CC1=CC(=O)/C(=C/NC(=S)NCc2ccccc2)C(=O)O1; > 100 µM (inactive)
CC[C@@H]1CC[C@@H]2[C@H](CC[C@]3(C)[C@@H](OS(=O)(=O)c4ccc(C)cc4)CC[C@@H]23)[C@H]1COS(=O)(=O)c1ccc(C)cc1; > 100 µM (inactive)
CSc1nc(NC2CCCC2)c2cc[nH]c2n1; 72.6 µM (inactive)

Next:
**Q:** Kindly state the measured GI50 obtained for C=CCNC1=C2C[C@@H](C)C[C@@H](OC)[C@H](OC(=O)CCN(C)C)[C@H](C)/C=C(\C)[C@@H](OC(N)=O)[C@H](OC)/C=C\C=C(/C)C(=O)NC(=CC1=O)C2=O with TK-10.
**A:** 0.0755 µM (active)

###

- Test system: SN12C
- Procedure Details: NCI tumour cell line growth inhibition, 48 h
Activity calls are given as the source filed them. Cut-off read from the data, not from the text of the source: active = GI50 up to about 1.1 µM and inactive = higher.
Hello, when you answer, please use one of the following outcomes: active, inactive

Worked examples, 10 compounds total:
CCOC(=O)c1c(N2CCCC2)[nH]c(=O)c(C(c2ccc(N(C)C)cc2)c2c(O)c(C(=O)OCC)c(N3CCCC3)[nH]c2=O)c1O; inactive
O=C1Nc2cccc3ncn(c23)C2=C1CCCC2; inactive
Cn1cc2ccccc2c1-c1nc(F)nc(F)n1; inactive
COC(=O)/C(=N\Nc1nnc(C)n1N)C(C#N)c1ccccc1 (stereo unspecified); inactive
CC(=O)/C(=C/NC(=S)Nc1ccccc1)C(=O)Nc1ccccc1C; inactive
Cc1cc(OC(=O)NCn2cc(-c3ccccc3)nn2)ccc1Cl; inactive
COC12OCCN(C)C1=CC(=O)C1N=NCC12 (stereo unspecified); inactive
O=C(CCCC1Cc2ccccc2C1=O)c1ccccc1 (stereo unspecified); inactive
Cc1ccc2c(c1)C(=S)N1CSCC1c1nncn1-2 (stereo unspecified); inactive
CC1OC(O[C@@H]2OC=C(C=O)[C@@]3(O)CC[C@H](C)[C@@H]23)C(O)C(O)C1O (stereo partly specified); inactive

**Q:** // outcome(item) with item = COC(=O)C(CCC1(C)OCCO1)=[N+]=[N-]
**A:** inactive

**Q:** Try this compound too: CCOC(=O)C1(Br)S(=O)(=O)OCCOS1(=O)=O
**A:** inactive

**Q:** Try this compound too: C[C@H]1O[C@@H](O[C@H]2[C@@H](O)C[C@H](O[C@H]3[C@@H](O)C[C@H](O[C@H]4CC[C@@]5(C)[C@H](CC[C@@H]6[C@@H]5CC[C@]5(C)[C@@H](C7=CC(=O)OC7)CC[C@]65O)C4)O[C@@H]3C)O[C@@H]2C)C[C@H](O)[C@@H]1O [DIGITOXIN]
**A:** active

**Q:** Try this compound too: C/C(=N/NS(=O)(=O)c1c(C)cc(C)cc1C)c1cccc[n+]1[O-]
**A:** inactive

**Q:** Try this compound too: CCCCCCCCCCOC1C(C(O)CNCCCN(C)C)OC2OC3(CCCCC3)OC21 (stereo unspecified)
**A:** inactive

**Q:** Try this compound too: CCc1n[nH]c(=O)n1NC(=O)c1ccccc1C(=O)O
**A:** inactive

###

Below is a list of entries, each paired with its recorded GI50 value.
- System: UACC-257
- Procedure Details: NCI tumour cell line growth inhibition, 48 h
The source made the active and inactive calls. No stated cut-off is given here; in the data, active = GI50 up to about 1.1 µM and inactive = higher.

CC(C)(C)OC(=O)N1NC(c2ccccc2)CC1c1ccccc1 (centres undefined); 43.7 µM (inactive)
S=c1ssc2c3ssc(=S)c3n(Cc3ccccc3)c12; > 100 µM (inactive)
O=C(NC1CCCCC1)c1nn[nH]c1Cl; > 100 µM (inactive)
CCOC(=O)[C@@]1(C)C=C2O[C@@H]3OC4(CCCCC4)O[C@@H]3C2=C2C(O)=CC=C(O)[C@]21C(=O)OC; > 68.1 µM (inactive)

**Q:** Fill in: GI50 of O=C(O)Cc1ccc2c(c1O)C(=O)c1c(ccc(CC(=O)O)c1O)C2=O is ___
**A:** > 100 µM (inactive)

**Q:** Try this compound too: Cc1c(C)c2ccc(OC(C)C(=O)O)cc2oc1=O (centres undefined)
**A:** > 100 µM (inactive)

**Q:** Try this compound too: O=C(NNC(=S)Nc1cccc(Cl)c1)c1cc(-c2ccccc2)nc2ccccc12
**A:** 15.7 µM (inactive)

**Q:** Try this compound too: CC1OC(OC2C(O[C@H]3CC[C@@]4(C)[C@@H](CC[C@@H]5[C@@H]4CC[C@]4(C)[C@@H]6[C@H](C[C@@H]54)O[C@]4(CC[C@@H](C)CO4)[C@H]6C)C3)OC(CO)C(OC3OC(CO)C(O)C(OC4OCC(O)C(O)C4O)C3OC3OCC(O)C(O)C3O)C2O)C(O)C(O)C1O (some centres undefined)
**A:** 1.3 µM (inactive)

**Q:** Try this compound too: CC(CC(=O)Nc1ccc(NC(=O)CC(C)/N=N\C(N)=S)cc1)/N=N\C(N)=S (centres undefined)
**A:** > 100 µM (inactive)

**Q:** Try this compound too: CN1C2CCC1CC(CC(=O)NC(c1ccc(F)cc1)c1ccc(F)cc1)C2 (centres undefined)
**A:** 20 µM (inactive)

**Q:** Try this compound too: CCOC(=O)C1(Br)S(=O)(=O)OCCOS1(=O)=O
**A:** > 100 µM (inactive)

**Q:** Try this compound too: CNC(=S)/N=C(\N)N(C)C
**A:** > 10 µM (inactive)

**Q:** Try this compound too: Cc1ccc(CC2(C(=O)O)Cc3ccc(C)cc3C2)cc1 (centres undefined)
**A:** > 100 µM (inactive)

**Q:** Try this compound too: Cn1c(SCc2ccc(F)cc2)nnc1C12CC3CC(CC(C3)C1)C2
**A:** 33.2 µM (inactive)

Provenance of the data: ChEMBL document CHEMBL1201862
